- target.system: SthA (UdhA), soluble pyridine nucleotide transhydrogenase (Escherichia coli)
quantity.kind: Kd (µM)

compound.string: NC(=O)C1=CN([C@@H]2O[C@H](COP(=O)(O)OP(=O)(O)OC[C@H]3O[C@@H](n4cnc5c(N)ncnc54)[C@H](O)[C@@H]3O)[C@@H](O)[C@H]2O)C=CC1
value: 88

* * *

- target.system: SthA (UdhA), soluble pyridine nucleotide transhydrogenase (Escherichia coli, UniProt P27306, C45A)
- Sequence (P27306 2-466 C45A): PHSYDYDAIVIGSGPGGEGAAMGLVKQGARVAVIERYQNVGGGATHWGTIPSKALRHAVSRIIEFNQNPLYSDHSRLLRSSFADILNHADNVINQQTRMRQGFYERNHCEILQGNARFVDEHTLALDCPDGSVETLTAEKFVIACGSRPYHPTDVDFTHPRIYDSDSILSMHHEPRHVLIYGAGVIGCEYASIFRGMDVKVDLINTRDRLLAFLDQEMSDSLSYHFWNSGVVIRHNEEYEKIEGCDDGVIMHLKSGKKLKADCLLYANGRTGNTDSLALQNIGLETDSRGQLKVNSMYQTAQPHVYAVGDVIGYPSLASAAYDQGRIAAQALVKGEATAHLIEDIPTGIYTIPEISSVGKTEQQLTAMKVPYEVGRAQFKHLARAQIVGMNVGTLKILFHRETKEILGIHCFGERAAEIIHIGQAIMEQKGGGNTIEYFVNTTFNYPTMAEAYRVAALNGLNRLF
- test.details: stopped-flow flavin reduction at […] nm, kobs vs NADH
- study.conditions: apparent; reductive half-reaction, anaerobic, 25 °C, no NADP+; 50 mM Tris pH 7.5
pKd: −log10 of the molar value.
quantity.kind: pKd

compound.string: NC(=O)C1=CN([C@@H]2O[C@H](COP(=O)(O)OP(=O)(O)OC[C@H]3O[C@@H](n4cnc5c(N)ncnc54)[C@H](O)[C@@H]3O)[C@@H](O)[C@H]2O)C=CC1
quantity.kind: pKd
value: 3.52
